System: HOSE1C
PROTOCOL_DESCRIPTION: drug sensitivity score (DSS) from 5-point dose-response viability curve (DSS (area-under-curve based score)); higher = more sensitive (stronger growth inhibition or killing); extreme values may be limits of the assay
TEST_PARAMETERS: exposure time: 72 h; concentration range: 5 concentrations over 10,000-fold range
OBSERVATION_TYPE: drug sensitivity score
# output: bare number, no unit

- COMPOUND: "CC(C)(C)Cn1c(N)nc2ccc(-c3[nH]c(C(C)(C)C)nc3-c3ccc(F)cc3)nc21"
  TARGET_SYSTEM: "HOSE1C"
  READING: 1.1
- COMPOUND: "CC1(C)CCC(CN2CCN(c3ccc(C(=O)NS(=O)(=O)c4ccc(NCC5CCOCC5)c([N+](=O)[O-])c4)c(Oc4cnc5[nH]ccc5c4)c3)CC2)=C(c2ccc(Cl)cc2)C1"
  TARGET_SYSTEM: "HOSE1C"
  READING: 0
- COMPOUND: "COc1cc(Nc2c(C#N)cnc3cc(OCCCN4CCN(C)CC4)c(OC)cc23)c(Cl)cc1Cl"
  TARGET_SYSTEM: "HOSE1C"
  READING: 6.8
- COMPOUND: "CO[C@@]12[C@H](COC(N)=O)C3=C(C(=O)C(C)=C(N)C3=O)N1C[C@@H]1N[C@@H]12"
  TARGET_SYSTEM: "HOSE1C"
  READING: 0
- COMPOUND: "CC[C@H](CC#N)OC(=O)N[C@@H](C)c1cccc(NC(=O)Nc2ccc(-c3cnco3)c(OC)c2)c1"
  TARGET_SYSTEM: "HOSE1C"
  READING: 25
- COMPOUND: "CN1CCN(c2ccc(C(=O)Nc3n[nH]c4ccc(Cc5cc(F)cc(F)c5)cc34)c(NC3CCOCC3)c2)CC1"
  TARGET_SYSTEM: "HOSE1C"
  READING: 0.1
- COMPOUND: "CCN(c1cc(-c2ccc(CN3CCOCC3)cc2)cc(C(=O)NCc2c(C)cc(C)[nH]c2=O)c1C)C1CCOCC1"
  TARGET_SYSTEM: "HOSE1C"
  READING: 0
- COMPOUND: "CCc1cncnc1N1CCN(Cc2nc3ccc(C(F)(F)F)cc3[nH]2)CC1"
  TARGET_SYSTEM: "HOSE1C"
  READING: 0
- COMPOUND: "O=c1ncn2nc(Sc3ccc(F)cc3F)ccc2c1-c1c(Cl)cccc1Cl"
  TARGET_SYSTEM: "HOSE1C"
  READING: 0.1
- COMPOUND: "CNC(=O)c1ccc(N2C(=S)N(c3cnc(C#N)c(C(F)(F)F)c3)C(=O)C23CCC3)cc1F [Apalutamide]"
  TARGET_SYSTEM: "HOSE1C"
  READING: 0

Form field: reported drug sensitivity score of Cc1cccc(-c2[nH]c(CNc3ccccc3F)nc2-c2ccc3ncnn3c2)n1 0

Form field: reported drug sensitivity score of CC(=O)c1cnc2ccc(-c3cc(Cl)c(O)c(Cl)c3)nc2c1N[C@H]1CC[C@H](CN(C)C)CC1 19.8

Form field: reported drug sensitivity score of COc1cc2ncnc(Nc3cccc(Cl)c3F)c2cc1OC(=O)N1CCN(C)C[C@H]1C 0

Form field: reported drug sensitivity score of C[C@@H]1C=C2C(=O)O[C@@H]3CC[C@H](C1)[C@]23O 8.1

Form field: reported drug sensitivity score of CC(C)c1cc(-c2n[nH]c(=O)n2-c2ccc3c(ccn3C)c2)c(O)cc1O 22.9

Form field: reported drug sensitivity score of Cn1c(=O)n(-c2ccc(C(C)(C)C#N)cc2)c2c3cc(-c4cnc5ccccc5c4)ccc3ncc21 20.5

----------
System: OVCAR4
PROTOCOL_DESCRIPTION: drug sensitivity score (DSS) from 5-point dose-response viability curve (DSS (area-under-curve based score)); higher = more sensitive (stronger growth inhibition or killing); extreme values may be limits of the assay
TEST_PARAMETERS: exposure time: 72 h; concentration range: 5 concentrations over 10,000-fold range
OBSERVATION_TYPE: drug sensitivity score
# output: bare number, no unit

Here is how some compounds turned out for drug sensitivity score.
- COMPOUND: "NC[C@@](O)(c1ccc(Cl)cc1)c1ccc(-c2cn[nH]c2)cc1"
  TARGET_SYSTEM: "OVCAR4"
  READING: 1.1
- COMPOUND: "CNC(=O)CN1CCC(Oc2cc3c(Nc4cccc(Cl)c4F)ncnc3cc2OC)CC1 [Sapitinib]"
  TARGET_SYSTEM: "OVCAR4"
  READING: 0

Proceeding to the next compound to report its drug sensitivity score.
Form field: reported drug sensitivity score of CCc1c(C(=O)C(N)=O)c2c(OCC(=O)O)cccc2n1Cc1ccccc1 [Varespladib] 0

----------
Consider the following compounds and their measured drug sensitivity score readings.
Tested on: Kuramochi
PROTOCOL_DESCRIPTION: drug sensitivity score (DSS) from 5-point dose-response viability curve (DSS (area-under-curve based score)); higher = more sensitive (stronger growth inhibition or killing); extreme values may be limits of the assay
TEST_PARAMETERS: exposure time: 72 h; concentration range: 5 concentrations over 10,000-fold range
# output: bare number, no unit

Here is how some compounds turned out for drug sensitivity score.
- COMPOUND: "COc1cc(C)c(/C=C/C(C)=C/C=C/C(C)=C/C(=O)O)c(C)c1C [Acitretin]"
  drug sensitivity score: 0
- COMPOUND: "CC/C(=C(\\c1ccc(O)cc1)c1ccc(OCCN(C)C)cc1)c1ccccc1 [4-hydroxytamoxifen]"
  drug sensitivity score: 4.2
- COMPOUND: "CC(=O)N(O)CCCCCNC(=O)CCC(=O)N(O)CCCCCNC(=O)CCC(=O)N(O)CCCCCN [Deferoxamine]"
  drug sensitivity score: 3.7

Proceeding to the next compound to report its drug sensitivity score.
Form field: reported drug sensitivity score of CCOc1ccn(-c2ccc(F)cc2)c(=O)c1C(=O)Nc1ccc(Oc2ccnc(N)c2Cl)c(F)c1 0

----------
System: COV362
PROTOCOL_DESCRIPTION: drug sensitivity score (DSS) from 5-point dose-response viability curve (DSS (area-under-curve based score)); higher = more sensitive (stronger growth inhibition or killing); extreme values may be limits of the assay
TEST_PARAMETERS: exposure time: 72 h; concentration range: 5 concentrations over 10,000-fold range
OBSERVATION_TYPE: drug sensitivity score
# output: bare number, no unit

Here is how some compounds turned out for drug sensitivity score.
- COMPOUND: "CN(C(=O)c1ccc(F)cc1C(F)(F)F)C1CCN(c2nnc(-c3ccnn3C)c3ccccc23)CC1"
  TARGET_SYSTEM: "COV362"
  drug sensitivity score: 0
- COMPOUND: "CNC(=O)c1cc(Oc2ccc(NC(=O)Nc3ccc(Cl)c(C(F)(F)F)c3)c(F)c2)ccn1"
  TARGET_SYSTEM: "COV362"
  drug sensitivity score: 0.6
- COMPOUND: "Nc1cccc2c1C(=O)N(C1CCC(=O)NC1=O)C2=O (stereo not drawn) [Pomalidomide]"
  TARGET_SYSTEM: "COV362"
  drug sensitivity score: 0

Proceeding to the next compound to report its drug sensitivity score.
Form field: reported drug sensitivity score of C=CC(=O)N1CCC[C@@H](n2nc(-c3ccc(Oc4ccccc4)cc3)c3c(N)ncnc32)C1 0.5

----------
System: HOSE2C
PROTOCOL_DESCRIPTION: drug sensitivity score (DSS) from 5-point dose-response viability curve (DSS (area-under-curve based score)); higher = more sensitive (stronger growth inhibition or killing); extreme values may be limits of the assay
TEST_PARAMETERS: exposure time: 72 h; concentration range: 5 concentrations over 10,000-fold range
Consider the following compounds and their measured drug sensitivity score readings.
# output: bare number, no unit

- COMPOUND: "CCC(C)n1ncn(-c2ccc(N3CCN(c4ccc(OCC5COC(Cn6cncn6)(c6ccc(Cl)cc6Cl)O5)cc4)CC3)cc2)c1=O (configuration not stated) [Itraconazole]"
  TARGET_SYSTEM: "HOSE2C"
  drug sensitivity score: 0

Form field: reported drug sensitivity score of CC(C)[C@H]1C(=O)N[C@@H](CCCNC(=N)N)C(=O)NCC(=O)N[C@@H](CC(=O)O)C(=O)N[C@H](Cc2ccccc2)C(=O)N1C [Cilengitide] 3.5

Form field: reported drug sensitivity score of Cc1nn(C)c(COc2ccc(N3CCN(S(=O)(=O)N(C)C)CC3)cc2)c1-c1cccc2c(CCCOc3cccc4ccccc34)c(C(=O)O)n(CCN3CCOCC3)c12 13.7

Form field: reported drug sensitivity score of COc1cc(OC)c(/C=C/S(=O)(=O)Cc2ccc(OC)c(NCC(=O)O)c2)c(OC)c1 [Rigosertib] 20.8

Form field: reported drug sensitivity score of CC(C)NC(=O)COc1cccc(-c2nc(Nc3ccc4[nH]ncc4c3)c3ccccc3n2)c1 [KD025] 0

Form field: reported drug sensitivity score of C[C@H]1C[C@@H]2[C@H]([C@@H](O)C[C@@]3(C)[C@H]2CC[C@]3(O)C(=O)CO)[C@@]2(C)C=CC(=O)C=C12 [Methylprednisolone] 0

Form field: reported drug sensitivity score of CC(=O)OC[C@H]1O[C@@H]([S-])[C@H](OC(C)=O)[C@@H](OC(C)=O)[C@@H]1OC(C)=O.CCP(CC)CC.[Au+] [Auranofin] 13.3

From: the supplement of paper PMC11616607
